# credit: ChEMBL document CHEMBL5058577

tested on: HEK-293T; test: Multiplex assay against HEK293T; format: toxicity, cell-based; conditions: human, 24 h, 10 µM, compound concentration 10 uM, replicate 2
measurement label: Population Hoechst High Intensity Objects (%)

compound	recorded measurement
CCCn1c(=O)c2[nH]c(C3CCCC3)nc2n(CCC)c1=O	15
Cc1ccccc1C(=O)Nc1ccc(C(=O)N2CCCC(N(C)C)c3ccccc32)cc1.Cl (stereo not given)	14
CCCC(CCC)C(=O)O	3
CCNC1(C(N)=O)CCN(c2ncnc3c2nc(-c2ccccc2Cl)n3-c2ccc(Cl)cc2)CC1	13
Cc1nc2ccc(Oc3ccc(F)cc3)cc2c(=O)n1C[C@H]1CCCN(C(C)C)C1.Cl	23
O=S(=O)(c1ccccc1)c1cnc2c(N3CCNCC3)cccc2c1 [INTEPIRDINE]	4
C[C@@H]1C[C@H]2[C@@H]3CCC4=CC(=O)C=C[C@]4(C)[C@@]3(F)[C@@H](O)C[C@]2(C)[C@@]1(O)C(=O)CO	15
CN1CCN(c2nc3cc(C(F)(F)F)ccc3n3cccc23)CC1.O=C(O)/C=C\C(=O)O.O=C(O)/C=C\C(=O)O	7
Cc1ccc(/C(=C\CN2CCCC2)c2ccccn2)cc1	4
COc1ccc2c(c1)C(C(=O)N(Cc1ccc(N(C)C)cc1)c1ccc(C(C)C)cc1)CCC2.Cl (stereo not given)	6
O=C(NCCO)c1cccc(-c2cc(Nc3ccc(OC(F)(F)F)cc3)ncn2)c1	14
CC[C@H]1OC(=O)[C@H](C)[C@@H](O[C@H]2C[C@@](C)(OC)[C@@H](O)[C@H](C)O2)[C@H](C)[C@@H](O[C@@H]2O[C@H](C)C[C@H](N(C)C)[C@H]2O)[C@@]2(C)CC(C)=C(O2)[C@H](C)[C@@H](O)[C@]1(C)O	10
CC(=O)O[C@H]1C(=O)[C@@]2(C)[C@H]([C@H](OC(=O)c3ccccc3)[C@]3(O)C[C@H](OC(=O)[C@H](O)[C@@H](NC(=O)c4ccccc4)c4ccccc4)C(C)=C1C3(C)C)[C@]1(OC(C)=O)CO[C@@H]1C[C@@H]2O	15
Oc1c(CN2CCN(c3ccccn3)CC2)cc(Cl)c2cccnc12	7
O=C(NCC(=O)N1CC[C@H](N[C@H]2CC[C@@](O)(c3ccc(-c4ncccn4)cn3)CC2)C1)c1cccc(C(F)(F)F)c1	5

* * *

tested on: U2OS; assay: Multiplex assay against U2OS; assay type: toxicity, cell-based; settings: human, 24 h, 1 µM, compound concentration 1 uM, replicate 2
measurement label: Population Fragmented Nuclei (%)

>>> print(df.to_string())
                                   compound  recorded_measurement
0  O=C(O)c1cc2ccccc2c(Cc2c(O)c(C(=O)O)cc3ccccc23)c1O [PAMOIC ACID]                    20
1   CN(C)c1ccnc2sc3c(=O)n(N4CCCCCC4)cnc3c12                    15
2  Cc1ccc(/C(=C\CN2CCCC2)c2ccccn2)cc1 [TRIPROLIDINE]                    20
3  CCCN1CCC[C@@H]2Cc3n[nH]cc3C[C@H]21.Cl [QUINPIROLE HYDROCHLORIDE]                    18
4  O=C1COc2nccc(-c3ccccc3F)c2CN1Cc1cc(C(F)(F)F)cc(C(F)(F)F)c1                    18
5  CC1(COc2ccc3c(c2)ncn3-c2ccc3cccc(N4CCC(N)CC4)c3n2)COC1 [CRENOLANIB]                    25
6  CN1CCN(c2nc3cc(C(F)(F)F)ccc3n3cccc23)CC1.O=C(O)/C=C\C(=O)O.O=C(O)/C=C\C(=O)O                    13
7  Cc1nc2ccc(Oc3ccc(F)cc3)cc2c(=O)n1C[C@H]1CCCN(C(C)C)C1.Cl                    21
8  O=S(=O)(c1ccccc1)c1cnc2c(N3CCNCC3)cccc2c1 [INTEPIRDINE]                    14

* * *

tested on: U2OS; assay: Multiplex assay against U2OS; assay type: toxicity, cell-based; details: human, 24 h, 10 µM, compound concentration 10 uM, replicate 1
measurement label: Population Pyknosed Nuclei (%)

In [3]: df
Out[3]:
                                   compound  recorded_measurement
0  O=C(NCC(=O)N1CC[C@H](N[C@H]2CC[C@@](O)(c3ccc(-c4ncccn4)cn3)CC2)C1)c1cccc(C(F)(F)F)c1                    13
1  O=C(NCCO)c1cccc(-c2cc(Nc3ccc(OC(F)(F)F)cc3)ncn2)c1                    12
2  COc1cc(C(=O)N(CCCc2ccccc2)Cc2ccc(CC(=O)O)cc2)cc(OC)c1C                     5
3  Cc1nc2ccc(Oc3ccc(F)cc3)cc2c(=O)n1C[C@H]1CCCN(C(C)C)C1.Cl                    16

* * *

system: U2OS; assay: Multiplex assay against U2OS; format: toxicity, cell-based; conditions: human, 12 h, 1 µM, compound concentration 1 uM, replicate 2
measurement label: Total Cell Count

>>> print(df.to_string())
                                   molecule  recorded_measurement
0  O=C(NCC(=O)N1CC[C@H](N[C@H]2CC[C@@](O)(c3ccc(-c4ncccn4)cn3)CC2)C1)c1cccc(C(F)(F)F)c1 [PF-4136309]                   138
1  Cc1nc2ccc(Oc3ccc(F)cc3)cc2c(=O)n1C[C@H]1CCCN(C(C)C)C1.Cl                   125
2  Cc1ccc(-c2ccc(F)cc2COc2ccc(CCC(=O)O)cc2)cc1                   135
3  COc1c(C)cc(NC(=O)c2nn(Cc3ccc(F)cc3)c3c2CN(C(=O)c2ccc[nH]2)C[C@]3(C)C(N)=O)cc1C                   102
4  N#Cc1c(N)nc(SCc2csc(-c3ccc(Cl)cc3)n2)c(C#N)c1-c1ccc(OCCO)cc1 [CAPADENOSON]                   150
5  C[C@@H]1C[C@H]2[C@@H]3CCC4=CC(=O)C=C[C@]4(C)[C@@]3(F)[C@@H](O)C[C@]2(C)[C@@]1(O)C(=O)CO [DEXAMETHASONE]                   124
6  CN1CCN(c2nc3cc(C(F)(F)F)ccc3n3cccc23)CC1.O=C(O)/C=C\C(=O)O.O=C(O)/C=C\C(=O)O                   111

* * *

test system: U2OS; experiment: Multiplex assay against U2OS; assay type: toxicity, cell-based; conditions: human, 12 h, 10 µM, compound concentration 10 uM, replicate 1

compound	unit abbreviation	Population Normal (%)
CCCN1CCC[C@@H]2Cc3n[nH]cc3C[C@H]21.Cl [QUINPIROLE HYDROCHLORIDE]	%	98
COc1c(C)cc(NC(=O)c2nn(Cc3ccc(F)cc3)c3c2CN(C(=O)c2ccc[nH]2)C[C@]3(C)C(N)=O)cc1C	%	90
COc1cc(NC(=O)CCN2CCC(OC(=O)Nc3ccccc3-c3ccccc3)CC2)c(Cl)cc1CNC[C@H](O)c1ccc(O)c2[nH]c(=O)ccc12 [BATEFENTEROL]	%	93
CC[C@H]1OC(=O)[C@H](C)[C@@H](O[C@H]2C[C@@](C)(OC)[C@@H](O)[C@H](C)O2)[C@H](C)[C@@H](O[C@@H]2O[C@H](C)C[C@H](N(C)C)[C@H]2O)[C@@]2(C)CC(C)=C(O2)[C@H](C)[C@@H](O)[C@]1(C)O	%	92
CN(C)c1ccnc2sc3c(=O)n(N4CCCCCC4)cnc3c12	%	95
Cc1ccc(-c2ccc(F)cc2COc2ccc(CCC(=O)O)cc2)cc1	%	98
O=C1COc2nccc(-c3ccccc3F)c2CN1Cc1cc(C(F)(F)F)cc(C(F)(F)F)c1	%	96

* * *

system: HEK-293T; assay: Multiplex assay against HEK293T; format: toxicity, cell-based; conditions: human, 12 h, 1 µM, compound concentration 1 uM, replicate 1
Please respond with 1 when measured Population Fragmented Nuclei (%) is strictly beneath 7%, and with 0 in all other cases.

compound	class assignment
O=C(O)c1cc2ccccc2c(Cc2c(O)c(C(=O)O)cc3ccccc23)c1O	0
O=C(NCC(=O)N1CC[C@H](N[C@H]2CC[C@@](O)(c3ccc(-c4ncccn4)cn3)CC2)C1)c1cccc(C(F)(F)F)c1	1
COc1ccc2c(c1)C(C(=O)N(Cc1ccc(N(C)C)cc1)c1ccc(C(C)C)cc1)CCC2.Cl (stereo not given)	1
CSc1ccccc1N1CCN(CCCCCC(=O)NC2CCCc3ccccc32)CC1.Cl (stereo not given)	1
O=C1COc2nccc(-c3ccccc3F)c2CN1Cc1cc(C(F)(F)F)cc(C(F)(F)F)c1	0
CCCC(CCC)C(=O)O	1
C[C@H]1[C@H]2CC[C@H]3[C@@H]4CC=C5C[C@@H](N(C)C)CC[C@]5(C)[C@H]4CC[C@]23CN1C	1
CCNC1(C(N)=O)CCN(c2ncnc3c2nc(-c2ccccc2Cl)n3-c2ccc(Cl)cc2)CC1	0
CCCN1CCC[C@@H]2Cc3n[nH]cc3C[C@H]21.Cl [QUINPIROLE HYDROCHLORIDE]	1
c1cc(OCCCN2CCCCC2)ccc1CN1CCCCC1	1
CC[C@H]1OC(=O)[C@H](C)[C@@H](O[C@H]2C[C@@](C)(OC)[C@@H](O)[C@H](C)O2)[C@H](C)[C@@H](O[C@@H]2O[C@H](C)C[C@H](N(C)C)[C@H]2O)[C@@]2(C)CC(C)=C(O2)[C@H](C)[C@@H](O)[C@]1(C)O	0
CN1CCN2c3ncccc3Cc3ccccc3C2C1 (stereo not given)	1
COc1cc(NC(=O)CCN2CCC(OC(=O)Nc3ccccc3-c3ccccc3)CC2)c(Cl)cc1CNC[C@H](O)c1ccc(O)c2[nH]c(=O)ccc12	1
Cl.Clc1ccc2nsnc2c1NC1=NCCN1 [TIZANIDINE HYDROCHLORIDE]	0
CN1CCN(c2nc3cc(C(F)(F)F)ccc3n3cccc23)CC1.O=C(O)/C=C\C(=O)O.O=C(O)/C=C\C(=O)O	1
C[C@H](NC(=O)c1c(C(F)F)nn(C)c1Oc1cccc(C(F)(F)F)c1)c1ccc(C(=O)O)cc1	1
N#Cc1c(N)nc(SCc2csc(-c3ccc(Cl)cc3)n2)c(C#N)c1-c1ccc(OCCO)cc1	1
